Reported log k′2 (capacity factor extrapolated to 0% methanol) values for the following compounds.
assay: physchem; settings: Average of at least three determinations on different LC-ABZ columns; 20 mM MOPS pH 7.4/methanol with octanol; extrapolated to 0% methanol
assay_metric: log k′2 (capacity factor extrapolated to 0% methanol)

| compound | test_result |
| --- | --- |
| CC(=O)Nc1ccc(O)cc1 [Acetaminophen] | −0.02 |
| C[C@]12C=CC(=O)C=C1CC[C@@H]1[C@@H]2[C@@H](O)C[C@@]2(C)[C@H]1CC[C@]2(O)C(=O)CO [Prednisolone] | 1.54 |
| c1ccc2ccccc2c1 [Naphthalene] | 3.06 |
| O=C1CN=C(c2ccccn2)c2cc(Br)ccc2N1 [Bromazepam] | 1.13 |
| Oc1cc(Cl)cc(Cl)c1 [3,5-Dichlorophenol] | 3.40 |
| c1ccc(-c2ccc(C(c3ccccc3)n3ccnc3)cc2)cc1 (stereo not shown) [Bifonazole] | 4.37 |
| Brc1cnc2ccccc2c1 [3-Bromoquinoline] | 2.54 |
| C[C@]12CC[C@H]3[C@@H](CCC4=CC(=O)CC[C@@]43C)[C@@H]1CC[C@@H]2O [Testosterone] | 2.74 |
| CC/C(=C(/CC)c1ccc(O)cc1)c1ccc(O)cc1 [Diethylstilbestrol] | 4.16 |
| CC(=O)CCCCn1c(=O)c2c(ncn2C)n(C)c1=O [Pentoxifylline] | 0.16 |
